System: UO-31 renal
Experiment: NCI-60 one-dose screen, 48 h (100 = growth as untreated, 0 = no growth, -100 = all killed)
Conditions: 10 µM
About 83,000 compounds went through this panel and 20% of them were active in at least one assay; those are over-represented in the sample as a whole.
Where growth equals or exceeds 80%, the correct label is criterion met; where it does not, the label is criterion not met.

>  <COMPOUND>
COC(=O)[C@]12CC[C@@H](C)[C@H](C)[C@@H]1C1=CC[C@@H]3[C@@]4(C)CC(=O)[C@H](O)[C@@]5(C)COC(=C45)C[C@@]3(C)[C@]1(C)CC2

>  <LABEL_VALUE>
criterion not met

$$$$
>  <COMPOUND>
O=C1CC(c2cccc(-c3cccnc3)c2)=Nc2ccc(Br)cc2N1

>  <LABEL_VALUE>
criterion not met

$$$$
>  <COMPOUND>
CNCCCNCCCN1C(=O)c2ccc3c4c(ccc(c24)C1=O)C(=O)N(CCCNCc1ccccc1OC)C3=O

>  <LABEL_VALUE>
criterion not met

$$$$
>  <COMPOUND>
CCOC(=O)c1sc(NC(=O)c2cc(OC)c(OC)c(OC)c2)nc1C

>  <LABEL_VALUE>
criterion not met

$$$$
>  <COMPOUND>
CCC1(C)OC(=O)NC1=O (stereo not given)

>  <LABEL_VALUE>
criterion met

$$$$
>  <COMPOUND>
COc1ccc(COC(=O)CC(C)C)cc1

>  <LABEL_VALUE>
criterion met

$$$$
>  <COMPOUND>
CCOC(=O)[C@@H](Cc1ccccc1)NC(=O)c1[nH]c2ccc(Cl)cc2c(=O)c1C

>  <LABEL_VALUE>
criterion met

$$$$
>  <COMPOUND>
COc1nc2c(c(=O)[nH]1)C(c1ccc(Oc3ccnc4cc(Cl)ccc34)c(OC)c1)C=C(c1cc(OC)c(OC)c(OC)c1)N2 (stereo not given)

>  <LABEL_VALUE>
criterion not met

$$$$
>  <COMPOUND>
Nc1ccc(C2=CC(c3ccc(Cl)cc3)N3C=CSC3=N2)cc1 (stereo not given)

>  <LABEL_VALUE>
criterion not met

$$$$
>  <COMPOUND>
COc1c(C)c(C)c(OC)c2c1[nH]c(=O)c1c3cccnc3cn21

>  <LABEL_VALUE>
criterion met

$$$$
>  <COMPOUND>
CCc1ccc(-c2nnc(COc3ccc(-c4nc5ccc(C)cc5[nH]4)cc3OC)o2)cc1

>  <LABEL_VALUE>
criterion not met

$$$$
>  <COMPOUND>
CCOC(=O)CNC(=O)Nc1ccc(Oc2ccc(NC(=O)NCC(=O)OCC)cc2)cc1

>  <LABEL_VALUE>
criterion met

$$$$
>  <COMPOUND>
CCOC(=O)c1ccc(N(C=O)CCC(=O)CCl)cc1

>  <LABEL_VALUE>
criterion not met

$$$$
>  <COMPOUND>
COc1cccc(C(=O)NNc2nc(N3CCOCC3)nc(N3CCN(C(c4ccccc4)c4ccccc4)CC3)n2)c1

>  <LABEL_VALUE>
criterion not met

$$$$
>  <COMPOUND>
CCN(CCCNC(=O)Cc1cc(=O)oc2cc(N(C)C)ccc12)CCNc1ccnc2cc(Cl)ccc12

>  <LABEL_VALUE>
criterion met

$$$$
>  <COMPOUND>
COc1cc(C(c2c[nH]c3ccccc23)N2CCCC2)ccc1OCc1ccccc1 (stereo not given)

>  <LABEL_VALUE>
criterion not met

$$$$
>  <COMPOUND>
O=C1/C(=C/c2cccs2)CCC/C1=C\c1cccs1

>  <LABEL_VALUE>
criterion not met

$$$$
>  <COMPOUND>
COc1cc(/C=C2\C(=O)Nc3cc(C)c(O)cc32)cc(OC)c1OC

>  <LABEL_VALUE>
criterion not met

$$$$
>  <COMPOUND>
Cc1nnc2c3nnc(-c4ccc(Cl)cc4)n3c3ccccc3n12

>  <LABEL_VALUE>
criterion not met

$$$$
>  <COMPOUND>
O=C1/C(=C/c2ccc(O)cc2)Cc2ccc(Cl)cc21

>  <LABEL_VALUE>
criterion not met

$$$$
